Quick reference: IC50 of the listed items.
molecular target: human αVβ6 (Homo sapiens, UniProt P06756+P18564); construct: purchased R & D systems 3817-AV; assay: human αVβ6 HTRF binding assay; details: alternatively SPA-based assay
Sequence (P06756 31-992 limits assumed): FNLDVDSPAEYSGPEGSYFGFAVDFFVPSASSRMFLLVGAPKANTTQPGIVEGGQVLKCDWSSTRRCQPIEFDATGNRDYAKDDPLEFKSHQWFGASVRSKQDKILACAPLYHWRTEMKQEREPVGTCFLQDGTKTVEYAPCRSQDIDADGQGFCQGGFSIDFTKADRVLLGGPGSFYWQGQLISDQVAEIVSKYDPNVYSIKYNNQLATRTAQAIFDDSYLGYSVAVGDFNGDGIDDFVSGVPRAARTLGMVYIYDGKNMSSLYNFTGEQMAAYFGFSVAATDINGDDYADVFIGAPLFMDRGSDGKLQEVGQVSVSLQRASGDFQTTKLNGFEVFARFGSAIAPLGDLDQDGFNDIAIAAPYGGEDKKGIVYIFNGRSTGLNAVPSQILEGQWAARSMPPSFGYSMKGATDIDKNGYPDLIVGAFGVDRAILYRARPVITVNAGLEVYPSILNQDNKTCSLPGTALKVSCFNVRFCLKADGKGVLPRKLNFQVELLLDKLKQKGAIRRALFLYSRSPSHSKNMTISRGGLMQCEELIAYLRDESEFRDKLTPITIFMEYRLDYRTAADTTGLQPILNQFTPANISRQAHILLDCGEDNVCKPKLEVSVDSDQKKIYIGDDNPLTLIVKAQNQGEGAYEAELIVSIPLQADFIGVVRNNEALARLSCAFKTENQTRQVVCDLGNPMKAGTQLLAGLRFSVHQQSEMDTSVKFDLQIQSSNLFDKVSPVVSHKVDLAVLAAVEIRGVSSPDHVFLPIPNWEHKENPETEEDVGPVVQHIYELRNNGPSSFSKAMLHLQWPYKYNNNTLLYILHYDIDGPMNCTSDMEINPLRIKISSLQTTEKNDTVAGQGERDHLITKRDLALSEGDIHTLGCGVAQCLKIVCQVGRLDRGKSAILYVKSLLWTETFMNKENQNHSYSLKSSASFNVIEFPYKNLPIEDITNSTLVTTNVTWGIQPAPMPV
Sequence (P18564 22-707 limits assumed): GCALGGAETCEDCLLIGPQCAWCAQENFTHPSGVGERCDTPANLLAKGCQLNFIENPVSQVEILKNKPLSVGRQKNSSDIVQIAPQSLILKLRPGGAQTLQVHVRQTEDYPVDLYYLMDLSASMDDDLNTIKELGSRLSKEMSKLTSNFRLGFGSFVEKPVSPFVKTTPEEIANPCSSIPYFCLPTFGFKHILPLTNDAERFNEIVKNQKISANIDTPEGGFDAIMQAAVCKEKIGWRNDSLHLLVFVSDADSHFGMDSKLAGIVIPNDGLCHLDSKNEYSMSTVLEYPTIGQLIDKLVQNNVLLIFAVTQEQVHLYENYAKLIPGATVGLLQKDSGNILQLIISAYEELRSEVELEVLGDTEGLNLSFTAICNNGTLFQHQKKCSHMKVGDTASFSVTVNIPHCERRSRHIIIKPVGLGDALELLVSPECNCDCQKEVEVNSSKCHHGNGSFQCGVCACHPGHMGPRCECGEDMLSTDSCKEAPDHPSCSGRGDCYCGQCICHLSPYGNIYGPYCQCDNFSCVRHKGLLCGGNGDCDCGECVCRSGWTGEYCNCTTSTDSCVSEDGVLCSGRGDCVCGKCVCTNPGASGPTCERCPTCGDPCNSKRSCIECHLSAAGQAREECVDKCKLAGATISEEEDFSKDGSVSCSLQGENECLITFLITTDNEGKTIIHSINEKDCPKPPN
Just the number in nM, nothing appended.

molecule="COc1ncc([C@H](CC(=O)O)N2CC(CCCCc3ccc4c(n3)NCCC4)C2=O)cn1 (stereo partly drawn) [Example 69]" result=3.27

Consider the additional molecule presented here.
Prompt: For COc1ccc([C@H](CC(=O)O)N2CC(F)(CCCCc3ccc4c(n3)NCCC4)C2)cn1 , write its IC50.
Response: 2.4

----------
target: human αVβ6 (Homo sapiens, UniProt P06756+P18564); construct: purchased R & D systems 3817-AV; test: human αVβ6 HTRF binding assay; settings: alternatively SPA-based assay
Observation type: IC50 (nM)
Numeric only. Scale: nM

Recorded IC50, per entry:
compound=O=C(O)C[C@@H](c1cnc2ccccc2c1)N1CC(F)(CCCCc2ccc3c(n2)NCCC3)C1 result=2.2
compound=O=C(O)C[C@H](NC(=O)[C@H]1C[C@H](CCc2ccc3c(n2)NCCC3)C1)c1ccc2c(c1)OCC2 result=0.87
compound=O=C(O)C[C@@H](c1ccc2c(c1)OCC2)N1CC(CCCCc2ccc3c(n2)NCCC3)C1 result=1.5
compound="COc1ccc(C(NC(=O)C2CC(CCc3ccc4c(n3)NCCC4)C2)C(C)(C)C(=O)O)cn1 (stereo not shown) [Example 191]" result=4300
compound=COc1ccc([C@H](CC(=O)O)NC(=O)C2CC3(C2)CN(CCc2ccc4c(n2)NCCC4)C3)cn1 result=13
compound="COC(Cc1ccc2c(n1)NCCC2)C1CN(C(=O)C[C@H](NC(=O)OCc2ccccc2)C(=O)O)C1 (stereo partly shown)" result=490

Prompt: Please indicate recorded IC50 of COc1ccc([C@H](CC(=O)O)NC(=O)C2(F)CN(CCc3ccc4c(n3)NCCC4)C2)cc1F measured with human αVβ6 (Homo sapiens, UniProt P06756+P18564).
Response: 0.6

Cited source: patent US11639353B2
